Biological target: Acetylcholinesterase (Homo sapiens)
Sequence (P22303 whole entry): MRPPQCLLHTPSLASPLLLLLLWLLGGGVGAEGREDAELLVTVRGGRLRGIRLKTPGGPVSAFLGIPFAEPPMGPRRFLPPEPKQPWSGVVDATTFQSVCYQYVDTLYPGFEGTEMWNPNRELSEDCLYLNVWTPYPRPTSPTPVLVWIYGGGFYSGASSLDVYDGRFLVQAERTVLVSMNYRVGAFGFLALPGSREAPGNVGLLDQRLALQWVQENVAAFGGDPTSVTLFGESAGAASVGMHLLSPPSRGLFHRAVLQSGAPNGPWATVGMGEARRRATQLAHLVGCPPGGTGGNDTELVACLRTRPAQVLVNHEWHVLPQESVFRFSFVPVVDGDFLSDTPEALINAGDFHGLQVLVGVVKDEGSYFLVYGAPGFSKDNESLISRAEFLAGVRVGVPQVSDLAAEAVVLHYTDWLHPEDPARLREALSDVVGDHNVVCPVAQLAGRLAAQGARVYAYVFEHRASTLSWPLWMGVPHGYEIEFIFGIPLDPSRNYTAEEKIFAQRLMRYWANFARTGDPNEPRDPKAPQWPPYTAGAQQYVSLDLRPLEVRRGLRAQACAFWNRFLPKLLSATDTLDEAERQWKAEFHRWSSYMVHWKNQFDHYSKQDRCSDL
Assay: Inhibition of AChE (unknown origin) at 10 uM relative to control
value_kind: inhibition (%)
Give just the number in %; leave the unit off.

Check out these entries, answers already filled in.
COc1ccc(OCc2nc(CN(CC(C)C)C(=O)c3ccc4c(c3)OCO4)cs2)cc1 :: -5.49
CC(C)CN(Cc1csc(COc2ccc(Cl)cc2)n1)C(=O)c1ccc2c(c1)OCO2 :: -9.46
Cc1ccc(OCc2nc(CN(CC(C)C)C(=O)c3ccccc3)cs2)cc1 :: 0.25

QUERY: Consider the compound shown here: CCCCCC(=O)N(Cc1csc(COc2ccc(C)cc2)n1)CC(C)C What is its recorded inhibition?
RESULT: 2.55

QUERY: Same question for Cc1ccc(OCc2nc(CN(CC(C)C)C(=O)S(=O)(=O)c3ccccc3)cs2)cc1 please.
RESULT: 12

QUERY: Same question for Cc1ccc(OCc2nc(CN(CC(C)C)C(=O)S(=O)(=O)c3ccc4ccccc4c3)cs2)cc1 please.
RESULT: 18.7

QUERY: Same question for Cc1ccc(OCc2nc(CN(CC(C)C)C(=O)c3cccs3)cs2)cc1 please.
RESULT: -0.31

QUERY: Same question for Cc1ccc(S(=O)(=O)C(=O)N(Cc2csc(COc3ccc(F)cc3)n2)CC(C)C)cc1 please.
RESULT: 14.3

QUERY: Same question for Cc1ccc(OCc2nc(CN(CC(C)C)C(=O)c3c(F)cccc3F)cs2)cc1 please.
RESULT: 0.18

QUERY: Same question for COc1ccccc1C(=O)N(Cc1csc(COc2ccc(C)cc2)n1)CC(C)C please.
RESULT: 2.25

QUERY: Same question for CC(C)CN(Cc1csc(COc2ccc(F)cc2)n1)C(=O)S(=O)(=O)c1ccccc1 please.
RESULT: 9.12
